All figures here come from the supplement of paper PMC9170038.

Each item that follows carries a reported apparent KD of MS2 coat protein.
- Test system: MS2 coat protein
- test: apparent KD of MS2 coat protein; designed switch direction (-1 OFF switch, 1 ON switch): -1; higher = weaker reporter binding
- condition.summary: Eterna round: R95; input ligand: microRNA oligo, concentration not stated
Write the answer as a number in nM, unit excluded.

Answered cases to consult:
input.sequence | target.system | observation.type | meas.value
GCUGCAUCAGGAUAUAUACGGUAUCACAUGAGGAUCACCCAUGUUCGUGUGGAACUGAACGUAGAAGGGAUUAGAU [Aramaa] (puzzle: Exclusion 5) | MS2 coat protein | apparent KD of MS2 coat protein | 28.3
UUUAUAAUUUCAAUCUUCGCCAGCAAACUAACACUGGCCACAUGAGGAUCACCCAUGUUUUUUGUUCGUUUUAUUCU [Cesoorso] (puzzle: Sensor v3, turn-off variant 2) | MS2 coat protein | apparent KD of MS2 coat protein | 62.9
AGCGUGGCUCAGGAUAUCAGCCCUGUGGAGUUCUGAGAAGGGAGCACAUGAGGAUCACCCAUGUGAAAGGGUAC [Useratarin] (puzzle: Exclusion 6) | MS2 coat protein | apparent KD of MS2 coat protein | 24.7

Now look at this one.
apparent KD of MS2 coat protein for ACCUCACAUGAGGAUCACCCAUGUUAGGAUAUCUCGAUGCUCCGCGGGCGGGAGCAUCAGAGAAGGAACGUGCA [Geusarvees] (puzzle: Exclusion 1) is 18.3
